The measurements presented in this section are drawn from patent US20230295159A1.

A set of compounds tested on ATX enzyme (Homo sapiens (Human)), with measured log10 of IC50:
In our notation, the value equals log10 of IC50 in nM.

Record excerpt, results attached:
* CCc1nc2ccc(-c3ncc(CC(=O)N4CC(O)C4)cc3F)cn2c1N(C)c1nc(-c2ccc(F)cc2)c(C#N)s1 | 1.26
* CCc1nn2ccc(-c3cnc(N4CCCS4(=O)=O)nc3)nc2c1N(CC)c1nc(-c2ccc(F)cc2)c(C#N)s1 | 1.18
* CCN(c1nc(-c2ccc(F)cc2)c(C#N)s1)c1c2nc(-c3cnc(N4CC(OC(C)=O)C4)nc3)ccc2nn1CC | 1.08

Entry `CCN(c1nc(-c2ccc(F)cc2)c(C#N)s1)c1c2nc(-c3cnc(N4CCCS4(=O)=O)nc3)ccc2nn1CC` : log10 of IC50 on ATX enzyme (Homo sapiens (Human)) = 0.87

Entry `CCN(c1nc(-c2ccc(F)cc2)c(C#N)s1)c1c2nc(-c3cnc(N4CC[C@@H](O)C4)nc3)ccc2nn1CC` : log10 of IC50 on ATX enzyme (Homo sapiens (Human)) = 0.58

Entry `CCN(c1nc(-c2ccc(F)cc2)c(C#N)s1)c1c2nc(-c3cnc(N4CC(CO)C4)nc3)ccc2nn1CC` : log10 of IC50 on ATX enzyme (Homo sapiens (Human)) = 1.04

Entry `CCc1nc2ccc(-c3cnc(N(C)S(C)(=O)=O)nc3)cn2c1N(CC)c1nc(-c2ccc(F)cc2)c(C#N)s1` : log10 of IC50 on ATX enzyme (Homo sapiens (Human)) = 1.65

----------
System under test: ATX enzyme (Homo sapiens (Human))
Measured parameter: IC50 (nM)
# number only, unit nM dropped from output

For record CCN(c1nc(-c2ccc(F)cc2)c(C#N)s1)c1c2nc(-c3cnc(N4CC(O)C4)nc3)ccc2nn1CC [Example 23] the listed IC50 is 11

For record CCc1nc2ccc(-c3cnc(CC(=O)N4CC(O)C4)cn3)cn2c1N(C)c1nc(-c2ccc(F)cc2)c(C#N)s1 [Example 4] the listed IC50 is 21

For record CCc1nc2ccc(-c3cnc(CC(=O)N4CC[C@@H](O)C4)cn3)cn2c1N(C)c1nc(-c2ccc(F)cc2)c(C#N)s1 [Example 13] the listed IC50 is 13

----------
Measurement description: Rat pharmacokinetic study
Type: in vivo, SD rat
Protocol conditions: SD, plasma, IV 2 mg/kg
Measured parameter: AUC(0-inf) (ng·h/mL)
# number only, unit ng·h/mL dropped from output

* CCN(c1nc(-c2ccc(F)cc2)c(C#N)s1)c1c2nc(-c3cnc(N4CC[C@@H](O)C4)nc3)ccc2nn1CC | 14100
* CCN(c1nc(-c2ccc(F)cc2)c(C#N)s1)c1c2nc(-c3cnc(N4CCCS4(=O)=O)nc3)ccc2nn1CC | 4720
* CCc1nc2c(C)cc(N3CCN(CC(=O)N4CC(O)C4)CC3)cn2c1N(C)c1nc(-c2ccc(F)cc2)c(C#N)s1 | 4460
* CCN(c1nc(-c2ccc(F)cc2)c(C#N)s1)c1c2nc(-c3cnc(N4CCOCC4)nc3)ccc2nn1CC | 7220

Let us examine a further case.
For record `CCN(c1nc(-c2ccc(F)cc2)c(C#N)s1)c1c2nc(-c3cnc(N4CCC(O)CC4)nc3)ccc2nn1CC` the listed AUC(0-inf) is 8170
